System: SF-295 CNS
Test: NCI-60 one-dose screen, 48 h (100 = growth as untreated, 0 = no growth, -100 = all killed)
Conditions: 10 µM unless noted
The panel holds about 83,000 compounds, 20% with a hit somewhere; the sample as a whole holds those more often.
Answer each item with its documented growth.
The answer is to be given in %; state only the numeric part.

Problem: For the molecule Cc1nc2sccn2c1-c1cn2ccsc2n1 , what growth is on record?
Solution: 89.9

Problem: I am curious: what growth value has been reported for O=C(Nc1cccc(C(=O)N2CCc3ccc(Cl)cc32)c1)c1ccco1 ?
Solution: 30.8

Problem: Look at this molecule and give its reported growth. O=C(/C=C/c1ccc[nH]1)c1ccc(-n2ccc(C(F)(F)F)n2)c(F)c1
Solution: 90.2

Problem: For the molecule COc1cc2oc(-c3cccc(C(=O)Nc4ccc5c(c4)OCO5)c3)cc(=O)c2c(O)c1OC , what growth is on record?
Solution: 92.1

====

Tested on: UO-31 renal
Assay: NCI-60 one-dose screen, 48 h
Details: 10 µM unless noted
About 83,000 compounds went through this panel and 20% of them were active in at least one assay; those are over-represented in the sample as a whole. The source made the active and inactive calls. Rule for the calls: active = growth percent below 10; inactive = the rest.
Lab note: assign the record to one of 1 (yes) = active, 0 (no) = inactive

Problem: GET /call?item= C#Cc1cccc(NC(=O)c2cccc(NC(=O)CCl)c2)c1 returns the recorded outcome of this test.
Solution: 1 (yes)

Problem: Any idea what this test logged for COc1cc(C=O)ccc1OC1OC(COC(C)=O)C(OC(C)=O)C(OC(C)=O)C1OC(C)=O (stereo unspecified) ?
Solution: 0 (no)

Problem: What outcome does the record of this test show for O=C(CNCCN1CCOCC1)N1c2cccc3cccc(c23)N(C(=O)CNCCN2CCOCC2)C1c1cn(-c2ccccc2)nc1-c1cccc([N+](=O)[O-])c1 ?
Solution: 0 (no)

Problem: So what was the verdict on CCSCC1CC(O)(c2ccccc2)CC(c2ccc(F)cc2)O1 (stereo unspecified) in this test?
Solution: 0 (no)

Problem: Given O=C(CCN1CCCC1)Nc1ccc2c(NCCc3ccccc3)c3ccccc3nc2c1 , state the outcome it received in this test.
Solution: 1 (yes)

Problem: Query: recorded result category for CC/C(=C\c1ccc(OC)cc1)C(=O)c1ccc(OC)cc1 in this test
Solution: 0 (no)

Problem: Name the outcome recorded for CCN(CC)CCCC(C)Nc1cc(O)cc2cccnc12 (stereo unspecified) in the assay.
Solution: 0 (no)

Problem: Would you mind telling me which call this test gave COc1cc2nc(-c3ccc(Cl)cc3)cc(OCCCN3CCOCC3)c2cc1OC ?
Solution: 0 (no)

Problem: Identify the outcome logged in this assay for the compound shown: O=c1c2c(c(=O)n1O)c1c3ccc[nH]c3nc1c1nc3[nH]cccc3c12
Solution: 0 (no)

Problem: What was the test verdict on C#CCNC(=O)[C@H](Cc1ccccc1)NC(=O)[C@]12CC[C@@H](C(=C)C)[C@@H]1[C@H]1CC[C@@H]3[C@@]4(C)CCC(=O)C(C)(C)[C@@H]4CC[C@@]3(C)[C@]1(C)CC2 ?
Solution: 0 (no)

Problem: Dear all, I need the recorded test outcome for C=C(C)[C@@H]1CC[C@]2(C(=O)N3CCN(C)CC3)CC[C@]3(C)[C@H](CC[C@@H]4[C@@]5(C)CC[C@H](OCCC#N)C(C)(C)[C@@H]5CC[C@]43C)[C@@H]12 , thank you.
Solution: 0 (no)

Problem: Which outcome did this test record for the compound COc1ccc(-c2[nH][nH]c(=O)c2-c2nc3ccccc3s2)cc1 ?
Solution: 0 (no)

Problem: What was the test verdict on CCN1Cc2nc3sc(C)c(C)c3c(=O)n2C=C1C ?
Solution: 0 (no)

Problem: Given CC(C)(C)c1cc(/C=N/NC(=O)c2ccccc2NC(=O)c2cccs2)c(O)c(C(C)(C)C)c1 , state the outcome it received in this test.
Solution: 0 (no)

Problem: For this compound, state the assay outcome: CCc1c2c(nc3ccc(OCc4ccc(B(O)O)cc4)cc13)-c1cc3c(c(=O)n1C2)COC(=O)[C@]3(O)CC
Solution: 1 (yes)

Problem: Hi, do you know how COc1ccc(Cc2cnc(NC(=O)c3ccc4c(c3)OCCO4)s2)cc1 came out in this test?
Solution: 0 (no)

Problem: What did the test return for NC(=NCCCOc1ccc(F)cc1)Nc1ccc(Cl)cc1 ?
Solution: 0 (no)

Problem: What is the recorded call for this compound in the test? O=C1NN(C(=O)c2ccccc2)C(c2ccc(Cl)c(Cl)c2)=C/C1=C\c1ccc([N+](=O)[O-])cc1
Solution: 0 (no)

Problem: # outcome recorded in this test, key = O=C(/C=C(/C=C/c1coc2ccccc12)OB(F)F)/C=C/c1coc2ccccc12
Solution: 0 (no)

Problem: Identify the outcome logged in this assay for the compound shown: CCCCOc1ccc(/C=N/Nc2cc(C)nc3ccc(Br)cc23)cc1
Solution: 1 (yes)

Problem: Which outcome did this test record for the compound N#Cc1cc(-c2nc3ccccc3s2)c(=O)n(NS(=O)(=O)c2ccccc2)c1N ?
Solution: 0 (no)

Problem: What classification did CN1CCC(=C(c2ccccc2)c2ccccc2)C(c2ccccc2)C1 (stereo unspecified) end up with in this test?
Solution: 0 (no)

Problem: What was the test verdict on CCCCCN1C=C/C(=C\C(=O)N(C)c2ccccc2Br)c2ccccc21 ?
Solution: 0 (no)

Problem: // return assay outcome for COc1cc(F)c(/C=C/c2cc(/C=C/c3cc(OC)c(OC)cc3F)on2)cc1OC
Solution: 0 (no)

Problem: Per the records of this test, what outcome belongs to Cc1nnc2c(Cc3ccccc3)nc3ccccc3n12 ?
Solution: 0 (no)

Problem: Hello, I am checking results. What call was entered for O=C(CCN1CCCC1)Nc1ccc2c(NCCCCc3ccccc3)c3ccccc3nc2c1 ?
Solution: 0 (no)

Problem: Answer briefly: the call reported for N#C/C(=C\c1ccc([N+](=O)[O-])s1)c1nc2cc(Cl)ccc2s1 in this assay.
Solution: 1 (yes)

Problem: I would be grateful if you could indicate the recorded call for COc1cc2c(=O)n(CCN)c3c4cc5c(cc4ccc3c2cc1OC)OCO5 .
Solution: 1 (yes)

Problem: Answer briefly: the call reported for CNC(=O)c1cncc(Cn2nc(C)c(NC(=O)c3ccc(COc4ccc(C(F)(F)F)cc4C)cc3)c2C)c1 in this assay.
Solution: 0 (no)

Problem: Entry NS(=O)(=O)c1ccc(CCN2C(=O)C=CC2=O)cc1 : call = ?
Solution: 0 (no)

Problem: Record request — test call for O=C1C=CC(=O)N1c1cccc(Cl)c1
Solution: 0 (no)
